SYSTEM_UNDER_TEST: human follicle-stimulating hormone receptor (FSHR) (Homo sapiens, UniProt P23945)
Construct: host or cells: CHO-K1
Sequence (P23945 18-695): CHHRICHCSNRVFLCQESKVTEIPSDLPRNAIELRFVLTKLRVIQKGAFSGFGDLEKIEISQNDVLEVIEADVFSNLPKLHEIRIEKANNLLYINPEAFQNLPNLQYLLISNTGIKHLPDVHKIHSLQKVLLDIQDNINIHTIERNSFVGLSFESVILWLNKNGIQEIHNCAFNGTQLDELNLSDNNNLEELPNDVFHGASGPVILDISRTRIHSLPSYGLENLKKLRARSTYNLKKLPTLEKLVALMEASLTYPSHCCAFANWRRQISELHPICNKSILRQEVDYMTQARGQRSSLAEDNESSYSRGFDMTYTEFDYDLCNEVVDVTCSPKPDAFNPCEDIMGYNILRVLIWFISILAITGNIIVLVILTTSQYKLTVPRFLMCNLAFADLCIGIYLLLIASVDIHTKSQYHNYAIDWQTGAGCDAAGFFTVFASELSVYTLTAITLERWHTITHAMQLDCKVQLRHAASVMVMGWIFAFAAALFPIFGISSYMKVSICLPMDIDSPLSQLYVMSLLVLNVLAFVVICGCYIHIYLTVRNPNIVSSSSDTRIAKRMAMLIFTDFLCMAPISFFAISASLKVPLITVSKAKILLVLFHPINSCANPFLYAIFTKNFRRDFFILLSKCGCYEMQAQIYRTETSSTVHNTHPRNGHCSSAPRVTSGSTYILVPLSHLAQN
ASSAY_PROTOCOL: Measurement of agonist cAMP production by activation of human FSHR
Assay type: cell-based
REPORTED_CONDITIONS: CHO-K1 human FSHR cells, 30 minutes at 37° C., HTRF cAMP kit; read-out: hFSHR Agonist cAMP EC50
Starred links: 1 amine or outer side, 2 acyl side, 3 side chain; linkers in the order of their positions; H or OH if unused. Non-standard residues stand in square brackets, D forms with d. Residues, ends and D or L forms follow the SMILES beside them. Groups on a side chain read outwards from the residue. *: point of attachment. X1 = COc1cc2c(cc1-c1cccc(N*)c1)-c1c(c(C(=O)N3CCOCC3(C)C)nn1-c1cc(Cl)cc(Cl)c1)CO2; DOTA = O=C(O)CN1CCN(CC(=O)O)CCN(CC(=O)*)CCN(CC(=O)O)CC1; Suc = O=C(CCC(=O)[*:2])[*:1]
PARAMETER: EC50

// known answers, use as guide
{"MOLECULE": "COc1cc2c(cc1-c1cncc(NC(=O)CCOCCOCCNC(=O)CN3CCN(CC(=O)O)CCN(CC(=O)O)CCN(CC(=O)O)CC3)c1)-c1c(c(C(=O)N3CCOCC3(C)C)nn1-c1cc(Cl)cc(Cl)c1)CO2", "SYSTEM_UNDER_TEST": "human follicle-stimulating hormone receptor (FSHR) (Homo sapiens, UniProt P23945)", "EC50": "< 10 nM"}
{"MOLECULE": "COc1cc2c(cc1-c1cccc(NC(=O)NCCOCCOCCOCCOCCNC(=O)CN3CCN(CC(=O)O)CCN(CC(=O)O)CCN(CC(=O)O)CC3)c1)-c1c(c(C(=O)N(C)C(C)(C)C)nn1-c1cc(Cl)cc(Cl)c1)CO2", "SYSTEM_UNDER_TEST": "human follicle-stimulating hormone receptor (FSHR) (Homo sapiens, UniProt P23945)", "EC50": "< 10 nM"}
{"MOLECULE": "COc1cc2c(cc1-c1cccc(NC(=O)NCCNC(=O)C[C@H](O)C[C@H](O)CCNC(=O)CN3CCN(CC(=O)O)CCN(CC(=O)O)CCN(CC(=O)O)CC3)c1)-c1c(c(C(=O)N3CCOCC3(C)C)nn1-c1cc(Cl)cc(Cl)c1)CO2", "SYSTEM_UNDER_TEST": "human follicle-stimulating hormone receptor (FSHR) (Homo sapiens, UniProt P23945)", "EC50": "< 10 nM"}

Recorded EC50 of "COc1cc2c(cc1-c1cccc(NC(=O)CON=C3CN(C(=O)CN4CCN(CC(=O)O)CCN(CC(=O)O)CCN(CC(=O)O)CC4)C3)c1)-c1c(c(C(=O)N3CCOCC3(C)C)nn1-c1cc(Cl)cc(Cl)c1)CO2" , please.
< 10 nM

Reported EC50, molecule "COc1cc2c(cc1-c1cncc(NC(=O)CNC(=O)CC[C@@H](NC(=O)CN3CCN(CC(=O)O)CCN(CC(=O)O)CCN(CC(=O)O)CC3)C(=O)O)c1)-c1c(c(C(=O)N3CCOCC3(C)C)nn1-c1cc(F)cc(F)c1)CO2" : ____
10 to 100 nM

Requested read-out: EC50. Entry: "COc1cc2c(cc1-c1cccc(NC(=O)NCCOCCOCCOCCOCCOCCOCCNC(=O)CN3CCN(CC(=O)O)CCN(CC(=O)O)CCN(CC(=O)O)CC3)c1)-c1c(c(C(=O)N3CCOCC3(C)C)nn1-c1cc(Cl)cc(Cl)c1)CO2"
< 10 nM

Which EC50 is reported for this molecule? COc1cc2c(cc1-c1cccc(NC(=O)CCC(=O)NCCCC[C@@H](NC(=O)[C@@H](CCC(=O)O)NC(=O)[C@@H](CCCNC(=N)N)NC(=O)[C@@H](CCC(=O)O)NC(=O)[C@@H](CCCNC(=N)N)NC(=O)[C@@H](C)NC(=O)CN3CCN(CC(=O)O)CCN(CC(=O)O)CCN(CC(=O)O)CC3)C(=O)N[C@H](C)C(N)=O)c1)-c1c(c(C(=O)N3CCOCC3(C)C)nn1-c1cc(Cl)cc(Cl)c1)CO2 [Compound 84] ({DOTA}-[dA][dR][dE][dR][dE][dK]([Suc-X1])[dA]-NH2)
10 to 100 nM

Give its EC50 value. Item: "COc1cc2c(cc1-c1cncc(NC(=O)CCC(=O)N(CCOCCOCCC(=O)O)C3CCN(C(=O)CN4CCN(CC(=O)O)CCN(CC(=O)O)CCN(CC(=O)O)CC4)CC3)c1)-c1c(c(C(=O)N3CCOCC3(C)C)nn1-c1cc(F)cc(F)c1)CO2"
10 to 100 nM

// EC50 lookup, key: "COc1cc2c(cc1-c1cccc(NC(=O)CONC(=O)CN3CCN(CC(=O)O)CCN(CC(=O)O)CCN(CC(=O)O)CC3)c1)-c1c(c(C(=O)N3CCOCC3(C)C)nn1-c1cc(Cl)cc(Cl)c1)CO2"
10 to 100 nM

Name the recorded EC50 for "COc1cc2c(cc1-c1cccc(NC(=O)NCCOCCOCCOCCOCCOCCOCCNC(=O)CN3CCN(CC(=O)O)CCN(CC(=O)O)CCN(CC(=O)O)CC3)c1)-c1c(c(C(=O)N(C)C(C)(C)C)nn1-c1cc(Cl)cc(Cl)c1)CO2" .
< 10 nM

---

Known EC50 of a selection of compounds
SYSTEM_UNDER_TEST: human follicle-stimulating hormone receptor (FSHR) (Homo sapiens, UniProt P23945)
Construct: host or cells: CHO-K1
ASSAY_PROTOCOL: Measurement of agonist cAMP production by activation of human FSHR
Type: cell-based
REPORTED_CONDITIONS: CHO-K1 human FSHR cells, 30 minutes at 37° C., HTRF cAMP kit; read-out: hFSHR Agonist cAMP EC50

{"COMPOUND": "COc1cc2c(cc1-c1cccc(NC(=O)C(CNC(=O)CCNC(=O)CN3CCN(CC(=O)O)CCN(CC(=O)O)CCN(CC(=O)O)CC3)CNC(=O)CCNC(=O)CN3CCN(CC(=O)O)CCN(CC(=O)O)CCN(CC(=O)O)CC3)c1)-c1c(c(C(=O)N3CCOCC3(C)C)nn1-c1cc(Cl)cc(Cl)c1)CO2", "SYSTEM_UNDER_TEST": "human follicle-stimulating hormone receptor (FSHR) (Homo sapiens, UniProt P23945)", "EC50": "> 100 nM"}
{"COMPOUND": "COc1cc2c(cc1-c1cncc(NC(=O)CCOCCNC(=O)CN3CCN(CC(=O)O)CCN(CC(=O)O)CCN(CC(=O)O)CC3)c1)-c1c(c(C(=O)N3CCOCC3(C)C)nn1-c1cc(Cl)cc(Cl)c1)CO2", "SYSTEM_UNDER_TEST": "human follicle-stimulating hormone receptor (FSHR) (Homo sapiens, UniProt P23945)", "EC50": "< 10 nM"}
{"COMPOUND": "COc1cc2c(cc1-c1cccc(NC(=O)CCCCCNC(=O)C(CS(=O)(=O)O)NC(=O)CN3CCN(CC(=O)O)CCN(CC(=O)O)CCN(CC(=O)O)CC3)c1)-c1c(c(C(=O)N3CCOCC3(C)C)nn1-c1cc(Cl)cc(Cl)c1)CO2 (stereo in doubt)", "SYSTEM_UNDER_TEST": "human follicle-stimulating hormone receptor (FSHR) (Homo sapiens, UniProt P23945)", "EC50": "< 10 nM"}

Which EC50 is listed for "COc1cc2c(cc1-c1cccc(/C(C)=N/OCCNC(=O)CN3CCN(CC(=O)O)CCN(CC(=O)O)CCN(CC(=O)O)CC3)c1)-c1c(c(C(=O)N3CCOCC3(C)C)nn1-c1cc(Cl)cc(Cl)c1)CO2" ?
10 to 100 nM

# get_value(readout='EC50', item= COc1cc2c(cc1-c1ccc(NC(=O)NCCOCCOCCOCCOCCOCCOCCNC(=O)CN3CCN(CC(=O)O)CCN(CC(=O)O)CCN(CC(=O)O)CC3)cc1)-c1c(c(C(=O)N(C)C(C)(C)C)nn1-c1cc(Cl)cc(Cl)c1)CO2 [Compound 5] )
10 to 100 nM

Fill in the blank: the reported EC50 of "COc1cc2c(cc1-c1cccc(NC(=O)C[C@@H](NC(=O)CN3CCN(CC(=O)O)CCN(CC(=O)O)CCN(CC(=O)O)CC3)C(=O)O)c1)-c1c(c(C(=O)N3CCOCC3(C)C)nn1-c1cc(Cl)cc(Cl)c1)CO2" is ____.
10 to 100 nM

So what does the record say about EC50 for "COc1cc2c(cc1-c1cccc(NC(=O)NCCNC(=O)CCOCCNC(=O)CN3CCN(CC(=O)O)CCN(CC(=O)O)CCN(CC(=O)O)CC3)c1)-c1c(c(C(=O)N3CCOCC3(C)C)nn1-c1cc(Cl)cc(Cl)c1)CO2" ?
< 10 nM

Need EC50, item "COc1cc2c(cc1-c1cccc(/C(C)=N/OCCNC(=O)CN(C)C(=O)CN(C)C(=O)CN3CCN(CC(=O)O)CCN(CC(=O)O)CCN(CC(=O)O)CC3)c1)-c1c(c(C(=O)N3CCOCC3(C)C)nn1-c1cc(Cl)cc(Cl)c1)CO2"
10 to 100 nM

Any idea what its EC50 is? The compound is "COc1cc2c(cc1-c1cccc(NC(=O)CCNC(=O)[C@H](CS(=O)(=O)O)NC(=O)CN3CCN(CC(=O)O)CCN(CC(=O)O)CCN(CC(=O)O)CC3)c1)-c1c(c(C(=O)N3CCOCC3(C)C)nn1-c1cc(Cl)cc(Cl)c1)CO2"
10 to 100 nM

Please give the measured EC50 for this compound: "COc1cc2c(cc1-c1cccc(OCCOCCOCCOCCOCCNC(=O)[C@H](CS(=O)(=O)O)NC(=O)CN3CCN(CC(=O)O)CCN(CC(=O)O)CCN(CC(=O)O)CC3)c1)-c1c(c(C(=O)N3CC(=O)NCC3(C)C)nn1-c1cc(Cl)cc(Cl)c1)CO2"
10 to 100 nM

Returns the measured EC50 for the input compound. Input: COc1cc2c(cc1-c1cccc(NC(=O)NCCNC(=O)[C@H](N)CCCCNC(=O)CN3CCN(CC(=O)O)CCN(CC(=O)O)CCN(CC(=O)O)CC3)c1)-c1c(c(C(=O)N3CCOCC3(C)C)nn1-c1cc(Cl)cc(Cl)c1)CO2 [Compound 23]
< 10 nM
